Would you mind telling me the reported CC50 at 48 h of each entry?
Test: Compound induced cytotoxicity in HCV replicon cell lines (WST-1 reagent)
Format: cell-based
Settings: human, 1b (con1) HCV replicon cells; WST-1, 48 hours; in 1 experiment
Where a name gives a salt, the structure may show the parent alone.

Please review the following examples before continuing.
[
  {
    "compound": "COC(=O)N[C@@H](CCc1ccccc1)C(=O)N1CCC[C@H]1c1ncc(-c2ccc3nc(-c4ccc(-c5c[nH]c([C@@H]6CCCN6C(=O)[C@@H](NC(=O)OC)C(C)C)n5)cc4)cnc3c2)[nH]1 [Example 79, trifluoroacetic acid salt]",
    "CC50 at 48 h": "> 2000 nM"
  },
  {
    "compound": "CC[C@H](C)[C@H](NC(=O)OC)C(=O)N1CCC[C@H]1c1ncc(-c2ccc3nc(-c4ccc(-c5c[nH]c([C@@H]6CCCN6C(=O)[C@@H](NC(=O)OC)C(C)C)n5)cc4)cnc3c2)[nH]1 [Example 58, trifluoroacetic acid salt]",
    "CC50 at 48 h": "> 2000 nM"
  }
]

Now for another entry.
INPUT: Quick check: CC50 at 48 h of COC[C@H](NC(=O)OC)C(=O)N1CCC[C@H]1c1ncc(-c2ccc3nc(-c4ccc(-c5c[nH]c([C@@H]6CCCN6C(=O)[C@@H](NC(=O)OC)C(C)C)n5)cc4)cnc3c2)[nH]1 [Example 69, trifluoroacetic acid salt] ?
OUTPUT: > 2000 nM
